# SYSTEM_TESTED: C-C chemokine receptor type 4 (Homo sapiens)
# Sequence (P51679 whole entry): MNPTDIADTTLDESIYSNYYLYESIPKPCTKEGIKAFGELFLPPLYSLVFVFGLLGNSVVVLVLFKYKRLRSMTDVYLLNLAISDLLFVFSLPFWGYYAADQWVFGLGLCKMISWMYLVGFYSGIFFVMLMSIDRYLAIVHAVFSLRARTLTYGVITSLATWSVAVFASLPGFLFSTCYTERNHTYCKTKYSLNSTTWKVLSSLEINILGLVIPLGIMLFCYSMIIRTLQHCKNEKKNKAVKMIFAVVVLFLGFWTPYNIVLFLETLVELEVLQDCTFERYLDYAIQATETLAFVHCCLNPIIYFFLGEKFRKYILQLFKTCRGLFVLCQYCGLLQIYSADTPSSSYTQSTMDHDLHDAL
# ASSAY_NAME: Antagonist activity at human CCR4 expressed in rat chem-5 cells assessed as inhibition of CCL22-induced calcium flux measured at 2.5 secs time interval for 45 secs by fluorescence assay
Exercise: state measured IC50 for each of the compounds provided.
Give bare numbers, in nM.

Some compounds with recorded IC50:
COMPOUND: C[C@@H](Nc1cncc(C2=CCN(C(=O)[C@H]3CCCCN3)CC2)n1)c1ccc(Cl)cc1Cl
IC50 (nM): 54
--
COMPOUND: Cc1nn([C@H](C)c2ccc(Cl)cc2Cl)c2nc(N3CC[C@H](N4CCC[C@H]4C(N)=O)[C@H](C)C3)cnc12
IC50 (nM): 170
--
COMPOUND: Cc1nn([C@H](C)c2ccc(Cl)cc2Cl)c2nc(N3CC[C@H](N4CCC[C@@H]4C)[C@H](C)C3)cnc12
IC50 (nM): 172
--
COMPOUND: C[C@@H]1CC(c2cnc3c(C#N)nn([C@H](C)c4ccc(Cl)cc4Cl)c3n2)=CC[C@@H]1N1CCC[C@H]1C(N)=O
IC50 (nM): 54
--
COMPOUND: C[C@@H]1CC(c2cnc3c(C#N)nn([C@H](C)c4ccc(Cl)cc4Cl)c3n2)=CC[C@@H]1N1CCC[C@H]1CN
IC50 (nM): 229
--
COMPOUND: CC1CN(c2cnc3c(C#N)nn(C(C)c4ccc(Cl)cc4Cl)c3n2)CCC1N1CCCCC1 (stereo unspecified)
IC50 (nM): 251

Go through the list and state IC50 for each entry.
1. Cc1nn([C@H](C)c2ccc(Cl)cc2Cl)c2nc(N3CC[C@H](N4CCC[C@H]4CCC#N)[C@H](C)C3)cnc12
2. Cc1nn([C@H](C)c2ccc(Cl)cc2Cl)c2nc(N3CC[C@H](N4CCCCC4)[C@H](C)C3)cnc12
3. Cc1nn([C@H](C)c2ccc(Cl)cc2Cl)c2nc(C3=CC[C@H](N4CCC[C@H]4CO)[C@H](C)C3)cnc12
4. Cc1nn([C@H](C)c2ccc(Cl)cc2Cl)c2nc(N3CC[C@H](N4CCC[C@H]4C(=O)O)[C@H](C)C3)cnc12
5. Cc1nn([C@H](C)c2ccc(Cl)cc2Cl)c2nc(N3CC[C@H](N4CCC[C@H]4CCS(C)(=O)=O)[C@H](C)C3)cnc12
6. Cc1nn(C(C)c2ccc(Cl)cc2Cl)c2nc(N3CCC(N4CCCCC4)C(C)C3)cnc12 (stereo unspecified)

1: 41; 2: 42; 3: 36; 4: 670; 5: 104; 6: 126
